# assay system: bromodomain protein BRD4 BD2 (Homo sapiens)
# Construct: The proteins BRD4 BD1/BD2 used in the experiment were purchased from Active Motif Company (Cat. No. 31380/31446)
# test details: HTRF in vitro assay, inhibitory activity against BRD4 BD2
# protocol conditions: BRD4(2) 30 nM in final system
readout kind: IC50

The examples below pair each entry with its known result.
Cc1nocc1-c1cc2c(C(C)c3ccccc3)cn(C)c(=O)c2[nH]1 (stereo not drawn): 10 to 100 nM
CC(c1ccccc1)c1cn(C)c(=O)c2[nH]c(-c3cncnc3)cc12 (stereo not drawn): ≤ 10 nM
CC(c1ccccc1)c1cn(C)c(=O)c2cc(-c3cnn(C4COC4)c3)oc12 (stereo not drawn): 10 to 100 nM
CC(c1cccc(F)c1F)c1cn(C)c(=O)c2[nH]c(-c3cnn(C4COC4)c3)cc12 (stereo not drawn): ≤ 10 nM
CC(c1ccccc1)c1cn(C)c(=O)c2cc(-c3cn(C)nc3N)sc12 (stereo not drawn): 10 to 100 nM
CC(c1ccccc1)c1cn(C)c(=O)c2[nH]c(-c3cnoc3)cc12 (stereo not drawn): 10 to 100 nM
Cn1cc(C(c2ccccc2)c2ccccc2)c2cc(-c3cnn(C4COC4)c3)[nH]c2c1=O: 10 to 100 nM
CCNC(=O)c1cc2c(C(c3ccccc3)c3ccccc3O)cn(C)c(=O)c2[nH]1 (stereo not drawn): 10 to 100 nM
CCNC(=O)c1cc2c(-c3nc(CO)cn3-c3ccc(C)cc3)cn(C)c(=O)c2[nH]1: 10 to 100 nM
Cn1cc(Cc2ccccc2)c2c[nH]cc2c1=O: 10 to 100 nM

IN: Tell us which IC50 value is on record for CCNC(=O)c1cc2c(C(O)c3c(C)cccc3C)cn(C)c(=O)c2[nH]1 (stereo not drawn)
OUT: 10 to 100 nM

IN: Tell us which IC50 value is on record for CC(c1ccccc1)c1cn(C)c(=O)c2[nH]c(-c3c[nH]cn3)cc12 (stereo not drawn)
OUT: ≤ 10 nM

IN: Tell us which IC50 value is on record for Cc1cc(C)cc(-n2c(-c3cn(C)c(=O)c4[nH]c(-c5cnn(C)c5)cc34)nc3ncccc32)c1
OUT: ≤ 10 nM

----------
pIC50 for assorted compounds
# assay system: bromodomain protein BRD4 BD1 (Homo sapiens)
# Construct: The proteins BRD4 BD1/BD2 used in the experiment were purchased from Active Motif Company (Cat. No. 31380/31446)
# test details: HTRF in vitro assay, inhibitory activity against BRD4 BD1
# protocol conditions: BRD4(1) 30 nM in final system
pIC50: −log10 of the molar value.

The examples below pair each entry with its known result.
Cn1cc(-c2cc3c(C(O)c4ccccc4)cn(C)c(=O)c3[nH]2)cn1 (centres unmarked) [Compound A44]: 6.00 to 7.00
CC(c1ccccc1)c1cn(C)c(=O)c2[nH]c(-c3c[nH]cn3)cc12 (centres unmarked) [Compound A47]: 7.00 to 8.00
Cc1nocc1-c1cc2c(C(C)c3ccccc3)cn(C)c(=O)c2[nH]1 (centres unmarked) [Compound A21]: 6.00 to 7.00
Cc1cc(C)cc(-n2c(-c3cn(C)c(=O)c4[nH]c(C(=O)Nc5ccn(C)n5)cc34)nc3ncccc32)c1 [Compound A51]: 7.00 to 8.00
CCNC(=O)c1cc2c(-c3cn(C)nc3C(C)c3ccccc3)cn(C)c(=O)c2[nH]1 (centres unmarked) [Compound A33]: 6.00 to 7.00

IN: Tell us which pIC50 value is on record for CCNC(=O)c1cc2c(Cc3ccccc3)cn(C)c(=O)c2[nH]1 [Compound A10]
OUT: 6.00 to 7.00

IN: Tell us which pIC50 value is on record for CC(c1ccccc1)c1cn(C)c(=O)c2[nH]c(C(=O)Nc3cnn(C)c3)cc12 (centres unmarked) [Compound A12]
OUT: 6.00 to 7.00

IN: Tell us which pIC50 value is on record for CCNC(=O)c1cc2c(-c3nc(CO)cn3-c3ccc(C)cc3)cn(C)c(=O)c2[nH]1 [Compound A36]
OUT: 6.00 to 7.00

IN: Tell us which pIC50 value is on record for Cn1cc(C(CCO)c2ccccn2)c2cc(C(=O)NC3CC3)[nH]c2c1=O (centres unmarked) [Compound A9]
OUT: 6.00 to 7.00

IN: Tell us which pIC50 value is on record for CCNC(=O)c1cc2c(C(C)c3ccc4ccccc4c3)cn(C)c(=O)c2[nH]1 (centres unmarked) [Compound A25]
OUT: 6.00 to 7.00

IN: Tell us which pIC50 value is on record for CC(c1ccccc1)c1cn(C)c(=O)c2[nH]c(-c3cnoc3)cc12 (centres unmarked) [Compound A20]
OUT: 6.00 to 7.00

IN: Tell us which pIC50 value is on record for CC(c1ccccc1)c1cn(C)c(=O)c2c(C(=O)O)c(-c3cnn(C)c3)oc12 (centres unmarked) [Compound A60]
OUT: 6.00 to 7.00

IN: Tell us which pIC50 value is on record for Cn1cc2c(Cc3ccccc3)cn(C)c(=O)c2c1 [Compound A2]
OUT: 6.00 to 7.00

IN: Tell us which pIC50 value is on record for COC(c1ccccc1)c1cn(C)c(=O)c2[nH]c(-c3cnn(C)c3)cc12 (centres unmarked) [Compound A43]
OUT: 6.00 to 7.00

IN: Tell us which pIC50 value is on record for CCNC(=O)c1cc2c(-c3cc(C(C)=O)c4cccnc4c3OC)cn(C)c(=O)c2[nH]1 [Compound A37]
OUT: 6.00 to 7.00

IN: Tell us which pIC50 value is on record for CC(c1ccccc1)c1cn(C)c(=O)c2[nH]c(-c3ccoc3)cc12 (centres unmarked) [Compound A46]
OUT: 7.00 to 8.00

IN: Tell us which pIC50 value is on record for CCNC(=O)c1cc2c(C(c3ccccc3)c3ccccc3O)cn(C)c(=O)c2[nH]1 (centres unmarked) [Compound A28]
OUT: 6.00 to 7.00
